- Assay notes: Pharmacokinetic study in dogs
- Format: in vivo, Male Beagle Dogs
- Experimental conditions: male, beagle, dog, plasma, oral, 100 mg, oral direct compressed tablet, 100 mg free form equivalent, versus IV 20 mg, n = 4, mean ± SE, read-out: Bioavailability(0-48 h)
Property: bioavailability (%)
Report only the number, with the unit % understood.

Problem: Supply bioavailability value. Item: CNC(=O)CN1CCC(Oc2cc3c(Nc4cccc(Cl)c4F)ncnc3cc2OC)CC1
Solution: 64

====

- Assay notes: Pharmacokinetic study in dogs
- Type: in vivo, Male Beagle Dogs
- Experimental conditions: male, beagle, plasma; dog, IV 20 mg, n = 4, mean ± SE; read-out: Cl (Clearance)
Property: clearance
Number first, unit second: that is the form wanted.

Problem: Supply clearance value. Item: CNC(=O)CN1CCC(Oc2cc3c(Nc4cccc(Cl)c4F)ncnc3cc2OC)CC1
Solution: 1.9 mL/min/kg

====

- Assay notes: Aqueous solubility (HPLC UV)
- Type: physicochemical
- Experimental conditions: water, thermodynamic from solid; 48 hours, 25° C., pH 7.0; read-out: solubility in water
Property: solubility at 48 h

Problem: Supply solubility at 48 h value. Item: CNC(=O)CN1CCC(Oc2cc3c(Nc4cccc(Cl)c4F)ncnc3cc2OC)CC1 [Compound (I)]
Solution: 1 µg/mL

====

- Assay notes: Pharmacokinetic study in dogs
- Format: in vivo, Male Beagle Dogs
- Experimental conditions: male, beagle, plasma; dog, oral direct compressed tablet, 100 mg free form equivalent, n = 4, mean ± SE; read-out: Tmax
Property: Tmax (h)
Report only the number, with the unit h understood.

Problem: Supply Tmax value. Item: CNC(=O)CN1CCC(Oc2cc3c(Nc4cccc(Cl)c4F)ncnc3cc2OC)CC1
Solution: 1.6

====

- Assay notes: Pharmacokinetic study in dogs
- Format: in vivo, Male Beagle Dogs
- Experimental conditions: dog, oral direct compressed tablet, 100 mg free form equivalent, n = 4, mean ± SE
Property: Cmax (µM)
Report only the number, with the unit µM understood.

Problem: Supply Cmax value. Item: CNC(=O)CN1CCC(Oc2cc3c(Nc4cccc(Cl)c4F)ncnc3cc2OC)CC1.O=C(O)/C=C/C(=O)O.O=C(O)/C=C/C(=O)O [Compound (I) difumarate Form A]
Solution: 32.6

====

- Assay notes: Pharmacokinetic study in dogs
- Type: in vivo, Male Beagle Dogs
- Experimental conditions: male, beagle, plasma; dog, IV 20 mg, n = 4, mean ± SE
Property: Cmax

Problem: Supply Cmax value. Item: CNC(=O)CN1CCC(Oc2cc3c(Nc4cccc(Cl)c4F)ncnc3cc2OC)CC1
Solution: 9 µM

====

- Assay notes: Pharmacokinetic study in dogs
- Format: in vivo, Male Beagle Dogs
- Experimental conditions: male, beagle, plasma; dog, IV 20 mg, n = 4, mean ± SE; read-out: Half-life (converted)
Property: half-life (h)
Report only the number, with the unit h understood.

Problem: Supply half-life value. Item: CNC(=O)CN1CCC(Oc2cc3c(Nc4cccc(Cl)c4F)ncnc3cc2OC)CC1 [Compound (I)]
Solution: 5.3

====

- System name: ErbB2 (Homo sapiens, UniProt P04626)
- Sequence (P04626 23-1255): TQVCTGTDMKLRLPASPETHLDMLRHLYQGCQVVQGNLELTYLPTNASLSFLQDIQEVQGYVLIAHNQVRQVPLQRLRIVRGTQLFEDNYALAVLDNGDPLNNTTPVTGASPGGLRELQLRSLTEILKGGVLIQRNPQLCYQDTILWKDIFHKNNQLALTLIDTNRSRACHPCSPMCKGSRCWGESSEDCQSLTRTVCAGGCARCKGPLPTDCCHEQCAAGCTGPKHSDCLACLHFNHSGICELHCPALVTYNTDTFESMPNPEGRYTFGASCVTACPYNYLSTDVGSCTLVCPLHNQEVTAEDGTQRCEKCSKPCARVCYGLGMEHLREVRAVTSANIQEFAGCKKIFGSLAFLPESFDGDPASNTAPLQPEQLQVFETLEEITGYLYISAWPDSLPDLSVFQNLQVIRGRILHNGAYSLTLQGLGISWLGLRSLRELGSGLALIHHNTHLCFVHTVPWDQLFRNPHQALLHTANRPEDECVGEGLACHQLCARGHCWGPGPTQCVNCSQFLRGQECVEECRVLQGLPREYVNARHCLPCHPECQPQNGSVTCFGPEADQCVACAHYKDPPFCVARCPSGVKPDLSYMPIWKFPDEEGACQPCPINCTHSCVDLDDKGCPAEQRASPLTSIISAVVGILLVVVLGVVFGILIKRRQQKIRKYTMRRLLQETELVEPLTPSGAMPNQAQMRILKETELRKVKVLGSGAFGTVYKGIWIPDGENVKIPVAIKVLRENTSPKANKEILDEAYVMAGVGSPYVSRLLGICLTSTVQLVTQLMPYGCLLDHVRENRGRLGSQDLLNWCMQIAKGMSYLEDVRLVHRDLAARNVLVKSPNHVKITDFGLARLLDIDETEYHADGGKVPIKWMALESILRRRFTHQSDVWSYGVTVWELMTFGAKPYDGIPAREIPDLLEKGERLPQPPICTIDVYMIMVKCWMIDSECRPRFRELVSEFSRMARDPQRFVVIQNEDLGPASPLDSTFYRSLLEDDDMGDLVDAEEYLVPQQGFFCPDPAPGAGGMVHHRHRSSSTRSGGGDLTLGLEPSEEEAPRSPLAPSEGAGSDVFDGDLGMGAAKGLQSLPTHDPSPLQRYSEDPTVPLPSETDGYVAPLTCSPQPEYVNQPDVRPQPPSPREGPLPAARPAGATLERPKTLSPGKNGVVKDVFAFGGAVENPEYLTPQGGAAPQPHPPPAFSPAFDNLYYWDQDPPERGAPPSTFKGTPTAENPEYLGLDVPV
- Assay notes: p-ErbB2 ELISA in HRG-stimulated MCF-7 cells
- Experimental conditions: 90 minutes treatment, bracket = confidence interval ratio, read-out: p-ErbB2 Geo Mean IC50 (95% CIR)
Property: IC50 (nM)
Report only the number, with the unit nM understood.

Problem: Supply IC50 value. Item: CNC(=O)CN1CCC(Oc2cc3c(Nc4cccc(Cl)c4F)ncnc3cc2OC)CC1
Solution: 3

====

- Assay notes: Pharmacokinetic study in dogs
- Assay type: in vivo, Male Beagle Dogs
- Experimental conditions: male, beagle, plasma; dog, oral direct compressed tablet, 100 mg free form equivalent, n = 4, mean ± SE; read-out: AUC(0-48)
Property: AUC(0-t) (µM·h)
Report only the number, with the unit µM·h understood.

Problem: Supply AUC(0-t) value. Item: CNC(=O)CN1CCC(Oc2cc3c(Nc4cccc(Cl)c4F)ncnc3cc2OC)CC1
Solution: 104

====

- Assay notes: Pharmacokinetic study in dogs
- Assay type: in vivo, Male Beagle Dogs
- Experimental conditions: male, beagle, plasma; dog, IV 20 mg, n = 4, mean ± SE; read-out: AUC(0-48)
Property: AUC(0-t) (µM·h)
Report only the number, with the unit µM·h understood.

Problem: Supply AUC(0-t) value. Item: CNC(=O)CN1CCC(Oc2cc3c(Nc4cccc(Cl)c4F)ncnc3cc2OC)CC1
Solution: 33.4
